- target: T1, PTHR1 on CHO-K1/Ga15/PTHR1 cells (UniProt Q03431 27-593, limits assumed)
- T1 sequence (looked up): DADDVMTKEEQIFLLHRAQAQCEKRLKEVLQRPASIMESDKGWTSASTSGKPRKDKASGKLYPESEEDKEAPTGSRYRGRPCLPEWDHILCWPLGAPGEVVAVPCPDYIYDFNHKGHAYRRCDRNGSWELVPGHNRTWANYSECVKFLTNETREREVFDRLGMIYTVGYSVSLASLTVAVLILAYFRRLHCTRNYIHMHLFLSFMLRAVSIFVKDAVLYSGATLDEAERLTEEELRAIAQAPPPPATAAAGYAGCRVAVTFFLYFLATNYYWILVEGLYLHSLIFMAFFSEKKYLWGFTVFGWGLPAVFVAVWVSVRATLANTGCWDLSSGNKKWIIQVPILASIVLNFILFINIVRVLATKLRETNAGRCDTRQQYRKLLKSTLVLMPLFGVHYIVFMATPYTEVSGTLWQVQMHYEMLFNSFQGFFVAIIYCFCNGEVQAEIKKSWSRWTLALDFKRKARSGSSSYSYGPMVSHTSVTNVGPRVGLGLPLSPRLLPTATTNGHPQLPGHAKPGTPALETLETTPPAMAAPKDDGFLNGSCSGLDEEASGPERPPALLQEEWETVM
- assay-explanation: cell-based or functional assay
endpoint-name: cAMP accumulation (HTRF): Emax (%)
Supply the numeric figure in %, leaving out any unit text.

Example entries and their recorded answers appear below.
1) AVAEIQLMHQRAKWAIQEIGIKITRELLERYL [R2-42] | 97.6
2) AVAEIQLMHQRAKWLNELRLKEEMRKILEDVY [R2-33] | 96.9

Please look at the following binder next.
Data request: Retrieve cAMP accumulation (HTRF): Emax measured for AVATIQLMTDIAKIRAEYELREMLLRLLEEIF [R2-6] and print it.
Data returned: 294
